TEST DETAILS: Acute toxicity, intravenous (once), ddY mice
Assay type: in vivo
REPORTED CONDITIONS: mouse, in vivo, iv, formulated per Preparation Example
From the text: In Table 7 are shown acute toxicity values (LD50, mg/kg) in ddY mice in the case of intravenously administering (once) each of the compounds of this invention in the form of preparations shown in the Preparation Examples shown in Table 7.
Structures can show the parent of a compound that is named as a salt.
OBSERVED PROPERTY: LD50

Check out these entries, answers already filled in.
[
  {
    "COMPOUND": "COC1C(O)C(C)OC(OC2C(Oc3cccc4c(OC(=O)CNC(=O)CNC(=O)CNC(=O)OCc5ccccc5)c5c(=O)oc6ccc(C)c7c(=O)oc(c34)c5c67)OC(C)C3OC(c4ccccc4)OC32)C1O (stereo not shown)",
    "LD50": "≥ 40 mg/kg"
  },
  {
    "COMPOUND": "CO[C@H]1[C@@H](O)[C@@H](C)O[C@H](O[C@H]2[C@H](Oc3cccc4c(OC(=O)c5cccc(N(C)C)c5)c5c(=O)oc6ccc(C)c7c(=O)oc(c34)c5c67)O[C@H](C)[C@@H]3OC(C)(C)O[C@@H]32)[C@@H]1O",
    "LD50": "≥ 80 mg/kg"
  },
  {
    "COMPOUND": "COC1C(O)C(C)OC(OC2C(Oc3cccc4c(OC(=O)C(C)CNC(C)C)c5c(=O)oc6ccc(C)c7c(=O)oc(c34)c5c67)OC(C)C3OC(c4ccccc4)OC32)C1O (stereo not shown) [Compound No. 2, Hydrochloride]",
    "LD50": "≥ 40 mg/kg"
  }
]

Switching to the query record.
Exercise: Requested field: LD50. Item: CO[C@H]1[C@@H](O)[C@@H](C)O[C@H](O[C@H]2[C@H](Oc3cccc4c(OC(=O)C5CC5)c5c(=O)oc6ccc(C)c7c(=O)oc(c34)c5c67)O[C@H](C)[C@@H]3OC(C)(C)O[C@@H]32)[C@@H]1O
Solution: ≥ 80 mg/kg
